System: Sonic hedgehog protein (Shh)
Experiment description: small-molecule binders of Shh protein, primary screen, biochemical, small-molecule microarray, 635/667 nm fluorescence (AID 1151);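 also: Shh protein binding to compounds spotted on small-molecule microarray slides; score combines spot fluorescence intensity with signal-to-noise across triplicate slides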
Study conditions: small-molecule microarray binding, 635 nm fluorescence; higher = more signal
Classes by composite z-score: Low = under 0.5, Mid = from 0.5 up to 0.8, High = 0.8 and over

### Prompt Determine which band this molecule sits in: "COc1cccc([C@H]2Oc3ccc(OC)cc3C(=NO[C@@H](C)c3cc(-c4c(C)cc(C)cc4C)no3)[C@@H]2O)c1"
### Response Low

### Prompt Class? Entry: CCOC(=O)[C@H](Cc1ccccc1)NC(=O)CCC1CC(OC(=O)NCCc2ccc(F)cc2)CC2(CCCC(COC(=O)NCc3cccc(C(F)(F)F)c3)O2)O1 (stereo partly specified)
### Response High

### Prompt State the class of the molecule shown: CCOC(=O)[C@H](CC(C)C)NC(=O)CCC1CC(OC(=O)NCCc2ccc(F)cc2)CC2(CCCC(COC(=O)NCCOC)O2)O1 (stereo partly specified)
### Response High

### Prompt Hi there! Could you help me figure out the category for "CC(=O)OC[C@H]1O[C@H](CC=NO[C@@H](C)c2cn([C@H](CO)Cc3ccccc3)nn2)C=C[C@@H]1OC(C)=O" please?
### Response High

### Prompt Field: class (composite z-score) — entry: "COc1ccc2c(c1)O[C@@H](c1cccc(C(F)(F)F)c1)[C@H](O)C2=O"
### Response Low

### Prompt State the band of "CC(=O)OC[C@H]1O[C@@H](ON=C(C)C)[C@H](OC(C)=O)[C@@H](OC(C)=O)[C@@H]1OC(C)=O"
### Response Low

### Prompt For this molecule, which bin applies? "COc1ccc(-c2cnnc(CCCn3ccnc3-c3ccccc3)n2)cc1"
### Response High

* * *

Measurement target: Torsin-1A-interacting protein 1 (Homo sapiens)
Experiment description: LAP1 binders from COS7 cell lysate, primary screen, small-molecule microarray, 635/667 nm fluorescence (AID 1116)
Study conditions: COS7-hLAP1 lysate binding, 635 nm fluorescence, higher = more signal
Parameter: composite z-score
Give bare numbers.

Sample answers from the record:
Molecule	composite z-score
CCN1C(=O)[C@H]2[C@H]3[C@H](O)[C@H](O)CC(=NOCC=C(C)CCC=C(C)C)[C@@H]3CC[C@H]2C1=O	0.0411
COC(=O)CC=C[C@@H](C)[C@@H](C=NOC[C@@H](O)COCc1ccco1)NS(=O)(=O)c1ccc(C)cc1	-0.435
CC(C)=CCCC(C)=CCON=C1C[C@@H](O)[C@@H](O)[C@@H]2[C@@H]3C(=O)N([C@@H](C)c4ccccc4)C(=O)[C@@H]3CC[C@@H]12	0.222
COc1ccc(O[C@H]2C=C[C@@H](c3ccccc3)O[C@@H]2CO)cc1	0.171
COC(=O)[C@H](C)NC(=O)CCC1CC(OC(=O)NCc2cccc3ccccc23)CC2(CCCC(COC(=O)NCCc3ccccc3OC)O2)O1 (stereo not given in full)	0.787

Parameters: items (list). Returns: composite z-score for each item.
1. CC(=O)OC[C@H]1O[C@H](CC=NOC(C)CN2CCCCc3nc(C)c(C)cc32)C=C[C@@H]1OC(C)=O (stereo not given in full)
2. C=CC[C@@H]1C=C[C@H](ON=C(C)CCN2CCCCc3nc(C)c(C)cc32)[C@@H](CO)O1
3. Cc1ccc(S(=O)(=O)N[C@@H]2COC(=O)CC=C[C@@H](C)[C@H](NS(=O)(=O)c3ccc(C)cc3)COC(=O)[C@H](C)NC(=O)CC=C[C@H]2C)cc1

### Response
0.556
0.533
-0.123

For every listed record, write down its composite z-score.
1. CC(C)(C)N1C(=O)[C@H]2[C@H]3[C@H](O)[C@H](O)CC(=NOC[C@@H](O)COCc4ccco4)[C@@H]3CC[C@H]2C1=O
2. CCCNC(=O)OC[C@H]1O[C@H](CCON=C2C[C@@H](O)[C@@H](O)[C@@H]3[C@@H]4C(=O)N(CC)C(=O)[C@@H]4CC[C@@H]23)C=C[C@@H]1Oc1ccc(OC)cc1

### Response
1: 1.45; 2: -0.0137

I need composite z-score for every entry listed below, if you could help.
1. CCOC(=O)[C@H](Cc1ccccc1)NC(=O)CCC1CC(OC(=O)NCc2cccc3ccccc23)CC2(CCCC(COC(=O)NCCc3ccccc3OC)O2)O1 (stereo not given in full)
2. O=C1[C@H]2[C@H]3[C@H](O)[C@H](O)CC(=NOCc4ccccc4)[C@@H]3CC[C@H]2C(=O)N1c1cccc(Oc2ccccc2)c1
3. CCN1C(=O)[C@H]2[C@H]3[C@H](O)[C@H](O)CC(=NO[C@H](C)c4cn([C@@H]5COC[C@H]5O)nn4)[C@@H]3CC[C@H]2C1=O
4. CC(C)CON=C1C[C@@H](O)[C@@H](O)[C@@H]2[C@@H]3C(=O)N(C(C)(C)C)C(=O)[C@@H]3CC[C@@H]12

### Response
[0.135, 0.902, -0.0938, 0.0031]

### Prompt Fill blank: measured composite z-score of the molecule "COC(=O)[C@H](Cc1ccccc1)NC(=O)[C@@H](C)CO" is ____.
### Response 0.763

* * *

Answer each item with its documented z-score.
Experiment description: modulators of S6 phosphorylation in cells, primary screen, cell-based, A549, cytoblot, luminescence, serum-stimulated (AID 1158);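 also: serum-stimulated A549 lung adenocarcinoma cells; signal is phosphorylated S6 detected by cytoblot immunostaining with HRP secondary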
Study conditions: A549 phospho-S6 cytoblot, 5 h, higher = more signal
Give bare numbers.

Quick request: z-score for each listed item, please.
1. CC(C)=NOC(C)CN1CCCc2nc(C)c(C)cc21 (centres undefined)
2. CCN1C(C)=C(C(=O)OC)[C@@H](c2ccccc2)N2C(=O)[C@](O)(C(=O)OC)CC(C(C)=O)=C12
3. CO[C@@H]1C=CCC(=O)N[C@@H](C)C(=O)OC[C@@H](OC)[C@H](C)C=CCC(=O)OC[C@H]1C
4. CC(CCC(=O)OC[C@H]1O[C@H](C#Cc2ccccc2)C=C[C@@H]1Oc1ccc(C)cc1)=NOC(C)CN1CCCCc2nc(C)c(C)cc21 (some centres undefined)
5. Cc1ccc(S(=O)(=O)N[C@@H]2COC(=O)CC=C[C@@H](C)[C@H](NS(=O)(=O)c3ccc(C)cc3)COC(=O)[C@H](C)NC(=O)CC=C[C@H]2C)cc1
6. CC(C)[C@H](NC(=O)OC(C)(C)C)[C@@H](O)CC(=O)C(C)(C)C
7. CCN1C(=O)[C@H]2[C@H]3[C@H](O)[C@H](O)CC(=NOC(C)CN4CCCc5nc(C)c(C)cc54)[C@@H]3CC[C@H]2C1=O (some centres undefined)

### Response
1. -0.558
2. 0.825
3. 0.15
4. -0.487
5. 0.378
6. 0.372
7. -0.461

For the 2 compounds below, give their z-score values.
1. O=C1[C@H]2[C@H]3[C@H](O)[C@H](O)CC(=NOC[C@@H](O)COCc4ccco4)[C@@H]3CC[C@H]2C(=O)N1Cc1ccccc1
2. CC(=O)OC[C@H]1O[C@@H](ON=C(C)C)[C@H](OC(C)=O)[C@@H](OC(C)=O)[C@@H]1OC(C)=O

### Response
1: -0.585; 2: 0.152

* * *

System: glycogen synthase kinase-3 (GSK3A per assay name; protocol says GSK3B)
Experiment description: GSK3 binders on small-molecule microarrays, primary screen, biochemical, small-molecule microarray, 635 nm fluorescence, GSK3A (AID 1103); also: the record names both GSK3A and GSK3B
Study conditions: small-molecule microarray binding, fluorescence 635 nm; higher = more signal
Parameter: composite z-score
Numbers only.

> print(dat)
                                   compound                        measurement.target  reported.measurement
1  CC(CCC(=O)OC[C@H]1O[C@H](C#Cc2ccccc2)C=C[C@@H]1Oc1ccc(C)cc1)=NO[C@@H](C)c1cc(-c2c(C)cc(C)cc2C)no1  glycogen synthase kinase-3 (GSK3A per assay name; protocol says GSK3B)                 -1.48

The following compounds each have a reported value; give each one's composite z-score.
1. CCOC(=O)[C@H](CC(C)C)NC(=O)CCC1CC(OC(=O)NCCc2ccc(F)cc2)CC2(CCCC(COC(=O)NCc3cccc4ccccc34)O2)O1 (some centres not stated)
2. CC(C)[C@@H](OCc1ccccc1)[C@H](C)C=NO[C@@H](C)c1cn([C@H](CO)Cc2ccccc2)nn1
3. CCN1C(=O)[C@H]2[C@@H]3C(=CC[C@H]2C1=O)C(=O)[C@H]1O[C@H]1[C@H]3O
4. C#CCCCON=C1[C@H]2CCn3c(=O)n(Cc4cc5c(cc4Cl)OCO5)c(=O)n3[C@H]2[C@H](O)[C@@H]2O[C@H]12
5. CCOC(=O)[C@H](CC(C)C)NC(=O)CCC1CC(OC(=O)NCCc2ccc(F)cc2)CC2(CCCC(COC(=O)NCCOC)O2)O1 (some centres not stated)
6. C#CCCCON=C1C[C@@H](O)[C@@H](O)[C@@H]2[C@@H]3C(=O)N(C[C@@H]4CCCO4)C(=O)[C@@H]3CC[C@H]12

### Response
1. 0.121
2. 0.148
3. 1.11
4. 0.557
5. 0.953
6. 0.444

Hey, just so you know, these numbers are from PubChem BioAssay.
